# targetSystem: T1, human CCR8 (human, UniProt P51685 1-355)
# T1 construct: Native CCR8 on human PBMC (CCR8+ CD3+ or CCR8+ CD4+ lymphocytes); also called chemokine (C-C motif) receptor 8
# T1 sequence (P51685 whole entry): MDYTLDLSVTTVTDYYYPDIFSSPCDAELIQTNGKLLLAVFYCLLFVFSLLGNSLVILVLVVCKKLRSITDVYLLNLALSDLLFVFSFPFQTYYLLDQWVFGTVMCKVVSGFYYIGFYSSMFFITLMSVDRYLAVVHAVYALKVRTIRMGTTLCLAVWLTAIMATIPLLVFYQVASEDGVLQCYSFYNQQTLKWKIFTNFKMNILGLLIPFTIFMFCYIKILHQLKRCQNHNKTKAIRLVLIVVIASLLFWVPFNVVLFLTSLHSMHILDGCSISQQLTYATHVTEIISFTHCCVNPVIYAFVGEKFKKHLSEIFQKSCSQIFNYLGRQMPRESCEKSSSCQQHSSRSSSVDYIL
# testDetails: flow blocking, PBMC CCR8+CD4+; competitor PE-AB2
propertyName: % Blocking (%)
Give just the numeric value; % need not be written.

Some binders with known % Blocking results, for comparison:
binder	propertyName	reported
AB15 (antibody, V domains shown, Hybridoma monoclonal; Same VH/VL entries as AB14; also called antibody 15; clone 15) VH: EVQLVESGGGLVQPKGSLKLSCAASGFTFNTYAMNWVRQAPGKGLEWVARIRSKSNNYATYYVDSVKDRFTISRDDSQSMLYLQINNLKTEDTAMYYCVRGRELGPYSAMDYWGQGTSVTVSS VL: DIVMTQAAPSVPVTPGESVSISCRSSKSLLHSNGNTYLYWFLQRPGQSPQLLIYRMSNLASGVPDRFSGSGSGTAFTLRISRVEAEDVGLYYCMQHLEYPFTFGGGTKLEIK	% Blocking	-28.1
AB8 (antibody, V domains shown, Hybridoma monoclonal; also called antibody 8; clone 8) VH: AVQLVESGGGLVQPKESLKISCAASGFIFSNAAMYWVRQAPGKGLQWVARIRTKPKNYATYYIDSVKGRFTISRDDSKSMVYLQMDNLKTEDTAMYYCNTMGLTRAYYFDYWGQGVMVTVSS VL: DIQMTQSPSFLSASVGDRVTINCKASQNINRYLNWYQQKLGEAPKLLIYNANSLQTGIPSRFSGSGSGTDFTLTIRSLQPEDVATYFCLQHNSWPWTFGGGTKLELK	% Blocking	-38.4

Inquiry: Recorded % Blocking for AB13 (antibody, V domains shown, Hybridoma monoclonal; also called antibody 13; clone 13) VH: EVQLVETGGGLVQPKGSLKLSCAASGFTFNAYAMNWVRQAPGKGLEWVARIRTKSNNYATYYADSVKDRFTISRDDSQTMLYLQMNNLKTEDTAMYYCVRDRATVTTGRAMDYWGQGTSVTVSS VL: DIVMTQAAPSLPVTPGESVSISCRSSKSLLHSNGNTYLYWFLQRAGQSPQLLIYRMSNLASGVPDRFSGSGSGTAFTLRISRVEAEDVGVYYCMQHLEYPFTFGSGTKLEIK , please?
Reply text: -33.5
